Value source: paper PMC11845477

Reported MIC of ancestor by item:
Tested on: A. baumannii ATCC 17978 (SEN) and A. baumannii ATCC BAA-1605 (MDR)
ASSAY_INFO: microbe, parasite or virus in culture
Format: cell-based, Acinetobacter baumannii
TEST_CONTEXT: Acinetobacter baumannii ATCC 17978 (AB-SEN), ancestor strain; sheet fig 2a
Write it as a number; the unit µg/mL goes unstated.

SMI | MEASUREMENT_UNITS | MIC of ancestor
C[C@@H](O)[C@H]1C(=O)N2C(C(=O)O)=C(S[C@@H]3CN[C@H](C(=O)N(C)C)C3)[C@H](C)[C@H]12 | µg/mL | 1
C[C@H]1c2cccc(O)c2C(=O)C2=C(O)[C@]3(O)C(=O)C(C(N)=O)=C(O)[C@@H](N(C)C)[C@@H]3[C@@H](O)[C@@H]21 | µg/mL | 0.25
O=c1ccc2ncc(=O)n3c2n1C[C@H]3CN1CCC(NCc2cc3c(cn2)OCCC3)CC1 | µg/mL | 2

Exam item: GET /values?readout=MIC of ancestor&item= "CN(C)c1cc(CNCC(C)(C)C)c(O)c2c1C[C@H]1C[C@H]3[C@H](N(C)C)C(O)=C(C(N)=O)C(=O)[C@@]3(O)C(O)=C1C2=O"
Marked response: 0.5
